Assay: Solubility of sweetening agents in medium-chain triglycerides (MCT)
Peptide text beside a SMILES is read from it.

Compound: COC(=O)[C@H](Cc1ccccc1)NC(=O)[C@@H](N)CC(=O)O [Aspartame, aspartame] (H-Asp-Phe-OMe)
Solubility in MCT: <0.001 w/w %

Compound: OC[C@H]1O[C@H](O[C@]2(CCl)O[C@H](CCl)[C@@H](O)[C@@H]2O)[C@H](O)[C@@H](O)[C@H]1Cl
Solubility in MCT: 0.005 w/w %

Compound: O=C1NS(=O)(=O)c2ccccc21
Solubility in MCT: 0.1 w/w %

Compound: OC[C@H]1O[C@@](CO)(O[C@H]2O[C@H](CO)[C@@H](O)[C@H](O)[C@H]2O)[C@@H](O)[C@@H]1O
Solubility in MCT: <0.001 w/w %

Compound: COC(=O)[C@H](Cc1ccccc1)NC(=O)[C@H](CC(=O)O)NCCC(C)(C)C
Solubility in MCT: 0.018 w/w %

Compound: OC[C@@H](O)[C@H](O)[C@@H](O)CO
Solubility in MCT: <0.001 w/w %

Compound: CC1=CC(=O)NS(=O)(=O)O1
Solubility in MCT: <0.001 w/w %

Compound: OC[C@@H](O)[C@@H](O)[C@H](O)[C@@H](O)CO
Solubility in MCT: <0.001 w/w %
